- ASSAY_COMMENT: NCI Yeast Anticancer Drug Screen. Data for the rad50 strain (AID 155);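 also: 0% = growth of vehicle-only cultures of the same strain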
- CONDITION_SUMMARY: S. cerevisiae rad50 strain growth inhibition; at 5.0 µM (retest, dose inferred, filed as 0.5); hits give high values
Compounds without any hit were thinned out: in the full panel of roughly 79,000, 15% have a hit.
RESULT_TYPE: growth inhibition (%)
Numbers only, in %.

# example entries with known answers
# MOLECULE, U, growth inhibition
measured = [
    ("Clc1ccc(CCN2CCOCC2)c(Cl)c1", "%", 4),
    ("S=C(SSC(=S)N1CCCCC1)N1CCCCC1", "%", 50),
]

// each molecule listed below needs its growth inhibition
1. CC1CCC2(NC1)OC1CC3C4CCC5CC(OC6OC(CO)C(OC7OC(CO)C(O)C(OC8OCC(O)C(O)C8O)C7OC7OC(CO)C(O)C(O)C7O)C(O)C6O)CCC5(C)C4CCC3(C)C1C2C (stereo unspecified)
2. OC(c1cc2c(c3ccccc13)CCCC2)C1CCCCN1 (stereo unspecified)
3. Cc1cc(-c2ccccc2)cc(C)[n+]1[O-]

Response line:
1. 1
2. -4
3. -1

###

Give growth inhibition for every item shown.
- ASSAY_COMMENT: NCI Yeast Anticancer Drug Screen. Data for the bub3 strain (AID 167)
- CONDITION_SUMMARY: S. cerevisiae bub3 mutant strain, at 50.0 µM (retest, dose inferred, filed as 5.0), hits give high values
Compounds without any hit were thinned out: in the full panel of roughly 79,000, 15% have a hit. Active and inactive are the calls of the source. No stated cut-off is given here; in the data, active means growth inhibition above about 70%; inactive means the rest.

# example entries with known answers
# COMPOUND, growth inhibition
rows = [
    ("COc1ccc(NP(=S)(Nc2ccc(OC)cc2)c2ccccc2)cc1", "78% (active)"),
    ("O=C(O)C1C2c3ccccc3C(c3ccccc32)C1Br (stereo unspecified)", "-29% (inactive)"),
    ("Nc1cc(Cl)ccc1C(=O)c1ccccc1Cl", "98% (active)"),
    ("S=C=Nc1cccc(Cl)c1", "89% (active)"),
    ("CC(C)=CC1CC(C)C2(CCC3(C)CC4C(C(=O)CC4(C)O)/C(C=O)=C\\CC32)O1 (stereo unspecified)", "100% (active)"),
]

// each compound listed below needs its growth inhibition
1. CCCCS.[Hg]
2. CC1=CC2OC3CC4OC(=O)/C=C/C=C/C(C(C)O)OCC(O)C(C)CC(=O)OCC2(CC1O)C4(C)C31CO1 (stereo unspecified)
3. CC[CH2][Sn]([Br])([Br])[CH2]CC
4. N#C[SH2+].N#C[SH2+].N#C[SH2+].N#C[SH2+].[Cu+2].c1ccc(C[P+](c2ccccc2)(c2ccccc2)c2ccccc2)cc1
5. O=C(CCl)c1ccc(O)cc1
6. O=P(CP(=O)(c1ccccc1)c1ccccc1)(c1ccccc1)c1ccccc1.[CH3][Sn]([CH3])([Cl])[Cl]

Response line:
1: 93% (active); 2: 95% (active); 3: 96% (active); 4: 90% (active); 5: 98% (active); 6: 8% (inactive)

###

- ASSAY_COMMENT: NCI Yeast Anticancer Drug Screen. Data for the CLN2oe strain (AID 163);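 also: 0% = growth of vehicle-only control cultures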
- CONDITION_SUMMARY: S. cerevisiae CLN2oe strain, at 11.0 µM, hits give high values
This is part of a sample that, as a whole, favours compounds with a hit. Of some 79,000 tested, about 15% had one in any assay. Calls of active or inactive are those of the source. Cut-off read from the data, not from the text of the source: active = growth inhibition above about 70%; inactive = the rest.
RESULT_TYPE: growth inhibition

# example entries with known answers
# COMPOUND, growth inhibition
rows = [
    ("COC(=O)C1=C(C(=O)OC)SC2(S1)C(C(=O)OC)=C(C(=O)OC)Sc1c2ssc1=O", "91% (active)"),
    ("CCCCN(CCCC)CC(C(C)=O)C(c1ccccc1)c1c(O)c2ccccc2oc1=O (centres undefined)", "5% (inactive)"),
    ("BrCC[N+]12CC[N+](CCBr)(CC1)C2", "2% (inactive)"),
]

// next entry
Prompt line: For the compound shown here, Oc1ccc(Cl)cc1Cc1ccccc1 , give the reported growth inhibition.
Response line: 71% (active)

Where these numbers come from: PubChem BioAssay (NCI)
